Hello, the source for this data is the Human Domainome abundance scans (Beltran et al. 2025), in case you need it.

For each entry below, report its abundance fitness value.
B1: POU domain, class 4, transcription factor 1, residues 266 to 347; numbered along this chain, Q01851 (parent)
chain: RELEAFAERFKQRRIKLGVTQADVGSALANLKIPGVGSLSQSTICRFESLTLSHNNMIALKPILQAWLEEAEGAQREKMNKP

- Variants of: B1
- assayExplanation: abundance fitness (aPCA) (normalised: wild type 0, dead -1); higher = more abundant; growth selection in yeast, the domain comes from the species named
- experimentalParameters: Homo sapiens

Could you tell me abundance fitness for each of these variants? They are listed below.
1. S53A
2. I44K
3. V19K

[-0.039, -1.04, 0.003]

Could you tell me abundance fitness for each of these variants? They are listed below.
1. E70R
2. E8P
3. F10W
4. P82W

[-0.046, -0.749, -0.237, -0.116]

Could you tell me abundance fitness for each of these variants? They are listed below.
1. I15E
2. K32T
3. K16L
4. Q12D
5. F6Q

1: 0.02; 2: 0.025; 3: -0.071; 4: -0.027; 5: -0.622
